Entries annotated with measured melting point

compound | melting point
O=C(O)CN(c1ccc(OCCc2coc(-c3ccccc3)n2)cc1)S(=O)(=O)Cc1ccccc1 [Example 5] | 147 to 149 °C
CC(C)S(=O)(=O)N(CC(=O)O)c1ccc(OCCc2coc(-c3ccccc3)n2)cc1 [Example 1] | 136 to 139 °C
CS(=O)(=O)N(CC(=O)O)c1ccc2oc(Cc3ccc4ccccc4c3)cc2c1 [Example 6] | 160 to 165 °C (dec.)
CN(C)S(=O)(=O)N(CC(=O)O)c1ccc(OCCc2coc(-c3ccccc3)n2)cc1 [Example 4] | 154 to 156 °C
CS(=O)(=O)N(CC(=O)O)c1ccc(OCCc2coc(-c3ccccc3)n2)cc1 [Example 2] | 200 to 201 °C
